# credit: PubChem BioAssay (NCI)

Test system: OVCAR-5 ovarian
Test: NCI tumour cell line growth inhibition, 48 h
measurement.name: TGI (µM)

* ClCc1ccc(Cn2cnc3nc(Cl)nc(Cl)c32)cc1 | 3.54
* CS(=O)(=O)Nc1ccc(Nc2c3ccccc3nc3cc(Cl)ccc23)cc1 | 22.3
* CCn1c(SC)nnc1-c1cc2c([nH]c3ccccc32)c(-c2cccc(O)c2)n1 | 43.1
* O=C(Nc1cccc(C(F)(F)F)c1)Nc1cc(S(=O)(=O)NC2CC2)ccc1-c1ccsc1 | 20.2
* O=C(c1ccccc1)c1ccc(N2C(=O)C3C4c5ccccc5C(/C=C/C(=O)c5ccccn5)(c5ccccc54)C3C2=O)cc1 (stereo not given) | 5.97
* O=C1CSC(c2cccc(Oc3ccccc3)c2)N1c1cc(Cl)ccc1Cl (stereo not given) | 76.9
* Cc1c(-c2ccc(N3CCc4cccc(C(=O)Nc5nc6ccccc6s5)c4C3)nc2C(=O)O)cnn1CC12CC3CC(CC(C3)C1)C2 | 32.4
* CCNC(=O)O/N=C1/C=C2CC[C@@H]3C(CC[C@@]4(C)C3CC[C@@H]4OC(=O)NCC)[C@@]2(C)CC1 (stereo not given in full) | 20
